This collection of values is drawn from ChEMBL document CHEMBL1201862.

Provide the recorded GI50 for the entries that follow.
- System: IGROV-1
- TEST: NCI tumour cell line growth inhibition, 48 h
Counter-ions that a name gives are not always drawn. Activity calls are given as the source filed them. No stated cut-off is given here; in the data, active = GI50 up to about 1.1 µM and inactive = higher.

Some solved cases for reference:
molecule=Cc1nc(-n2nc(-c3ccccc3)cc2-c2ccccc2)sc1C(=O)/C=C/c1ccccc1 assay_endpoint=GI50 endpoint_value="75.5 µM (inactive)"
molecule="CC1C2CC(C/C2=N/O)C1(C)C (stereo not given)" assay_endpoint=GI50 endpoint_value="> 100 µM (inactive)"
molecule=OC(Cc1ccc2ccccc2n1)(C(F)(F)F)C(F)(F)F assay_endpoint=GI50 endpoint_value="> 10 µM (inactive)"

Respectfully, I request GI50 for each entry included below.
1. Cc1cc2c(=O)n(-c3ccc(F)cc3)c(C)nc2c(C(=O)O)c1C
2. CC(=O)N(C)c1ccc(Nc2cc(C)nc3ccc4nc[nH]c4c23)cc1 [ACODAZOLE HYDROCHLORIDE]
3. O=C1OC(c2ccccc2)=N/C1=C\c1cccnc1
4. COc1cccc(NC(=S)Nn2c(C)nc3ccccc3c2=O)c1
5. CC(=O)OCC1OC(N=[N+]=[N-])C(OC(C)=O)C(OC(C)=O)C1OC1OC(COC(C)=O)C(OC(C)=O)C(OC(C)=O)C1OC(C)=O (stereo not given)
6. N#Cc1c(N)nc2c(/N=N\c3ccccc3)c(N)nn2c1Nc1ccccc1

> 100 µM (inactive)
12.4 µM (inactive)
> 100 µM (inactive)
> 100 µM (inactive)
> 100 µM (inactive)
10.9 µM (inactive)

Given CCCOC(=O)CNC(=O)OC(C)(C)C , respond with its GI50.
> 100 µM (inactive)
